Origin of values: PubChem BioAssay AID256

- System: CD2F1 mice, L1210 leukemia ip, survival T/C
- assay explanation: NCI In Vivo Anticancer Drug Screen. Data for tumor model L1210 Leukemia (intraperitoneal) in CD2F1 (CDF1) mice
- particulars: endpoint: mean survival time; dose: 400.0 mg/kg/injection; schedule: Q04DX003 (ip); vehicle: saline with Tween-80
Inconclusive results and toxic doses are left out. Rule for the calls: active = survival T/C of 150% or more; inactive = T/C below 125% in these data.
// allowed return values: Y for active, N for inactive

Input line: How did this test come out for C=C(Br)CSC#N ?
Output line: N

Input line: How did this test come out for O=[N+]([O-])c1ccc2c(c1)CS(=O)(=O)O2 ?
Output line: N

Input line: How did this test come out for CC12CCC(C(=O)C1=O)C2(C)C (configuration not stated) ?
Output line: N

Input line: How did this test come out for CCCCCCCCCCCCCCCCS(=O)(=O)CCO ?
Output line: N

Input line: How did this test come out for C=CCC1(C(=O)OCC)CCCCC1=O (configuration not stated) ?
Output line: N

Input line: How did this test come out for CC(=O)C1=C(C)NC(C)=C(C(C)=O)C1C ?
Output line: N

Input line: How did this test come out for O=C(NC(=O)c1ccccc1)c1ccccc1 ?
Output line: N

Input line: How did this test come out for Cc1cccn(O)c1=NC(=O)c1ccccc1 ?
Output line: N

Input line: How did this test come out for O=C(N/N=C/c1ccc2c(c1)CCC2)c1ccncc1 ?
Output line: N

Input line: How did this test come out for OCc1ccc(Cl)cc1 ?
Output line: N

Input line: How did this test come out for CC(O)Cc1c(Cc2ccccc2)nc(-c2ccccc2)[nH]c1=O (configuration not stated) ?
Output line: N

Input line: How did this test come out for COC(=O)/C(Br)=C/N(Cc1ccccc1)Cc1ccccc1 ?
Output line: N

Input line: How did this test come out for Cc1c2cnccc2c(C)c2c1c1ccccc1n2CCO ?
Output line: Y

Input line: How did this test come out for O=C(Nc1ccc(-c2cc(-c3ccccc3)on2)cc1)c1ccccc1 ?
Output line: N

Input line: How did this test come out for CC(NC(=O)OCc1ccccc1)C(=O)O (configuration not stated) ?
Output line: N

Input line: How did this test come out for Cc1cc(C)cc(OCCOCCOc2cc(C)cc(C)c2)c1 ?
Output line: N

Input line: How did this test come out for [N-]=[N+]=C1C(=O)NC(=O)N2C3CC(O)C(COC12)O3 (configuration not stated) ?
Output line: N

Input line: How did this test come out for COC(=O)CCCCC(=O)OC ?
Output line: N

Input line: How did this test come out for Cc1c2c(cc3c1[nH]c1ccccc13)C(c1ccc(Cl)cc1)=NCC2 ?
Output line: N

Input line: How did this test come out for CC(=O)CC(=O)OCc1ccccc1 ?
Output line: N

Input line: How did this test come out for Clc1ccc(CSCc2ccc(Cl)cc2Cl)c(Cl)c1 ?
Output line: N

Input line: How did this test come out for CCOP(=O)(OCC)/C(C#N)=C\c1ccc(N(C)C)cc1 ?
Output line: N

Input line: How did this test come out for CCOc1c(F)ccc(F)c1-c1c(F)ccc(F)c1OCC ?
Output line: N

Input line: How did this test come out for O=[N+]([O-])c1cccc(-c2nn[nH]n2)c1 ?
Output line: N

Input line: How did this test come out for CC(C)(C)CC(C)(C)c1ccc(O)c(Cl)c1 ?
Output line: N

Input line: How did this test come out for CC(C)C1=CC2=C(CC1)C1(C)CCCC(C)(C(=O)O)C1CC2 (configuration not stated) ?
Output line: N

Input line: How did this test come out for BrC1CCCCCCC1 ?
Output line: N

Input line: How did this test come out for COc1ccc(/C=C/C(=O)c2ccc(OC)c(OC)c2)cc1OC ?
Output line: N

Input line: How did this test come out for CC(=Nc1ccccc1)c1ccc2ccccc2c1 ?
Output line: N

Input line: How did this test come out for CN1C=CC(C(C(N)=O)c2ccccc2)c2ccccc21 (configuration not stated) ?
Output line: N

Input line: How did this test come out for O=C(Nc1ccccc1)C(Cl)Cl ?
Output line: N

Input line: How did this test come out for O=C(Nc1ccccc1)Nc1nnnc2ccccc12 ?
Output line: N

Input line: How did this test come out for Cc1ccc(S(=O)(=O)N(O)c2ccccc2)cc1 ?
Output line: N

Input line: How did this test come out for COC1CC(O)C2OC(c3ccccc3)OCC2O1 (configuration not stated) ?
Output line: N

Input line: How did this test come out for CCCCS(=O)(=O)c1ccc(Cl)cc1 ?
Output line: N

Input line: How did this test come out for Clc1ccc(C#Cc2ccc(Cl)cc2)cc1 ?
Output line: N

Input line: How did this test come out for Cc1ccc(NC(=O)c2ccccc2)c(C)c1 ?
Output line: N
